Reference source for all entries: patent EP4559908A1

- targetOrSystem: human ANO6 (variant 5) (Homo sapiens, UniProt Q4KMQ2)
- Construct: expressed in transfected cells; host or cells: Fischer rat thyroid (FRT) cells
- Sequence (Q4KMQ2 1-931 isoform Q4KMQ2-2): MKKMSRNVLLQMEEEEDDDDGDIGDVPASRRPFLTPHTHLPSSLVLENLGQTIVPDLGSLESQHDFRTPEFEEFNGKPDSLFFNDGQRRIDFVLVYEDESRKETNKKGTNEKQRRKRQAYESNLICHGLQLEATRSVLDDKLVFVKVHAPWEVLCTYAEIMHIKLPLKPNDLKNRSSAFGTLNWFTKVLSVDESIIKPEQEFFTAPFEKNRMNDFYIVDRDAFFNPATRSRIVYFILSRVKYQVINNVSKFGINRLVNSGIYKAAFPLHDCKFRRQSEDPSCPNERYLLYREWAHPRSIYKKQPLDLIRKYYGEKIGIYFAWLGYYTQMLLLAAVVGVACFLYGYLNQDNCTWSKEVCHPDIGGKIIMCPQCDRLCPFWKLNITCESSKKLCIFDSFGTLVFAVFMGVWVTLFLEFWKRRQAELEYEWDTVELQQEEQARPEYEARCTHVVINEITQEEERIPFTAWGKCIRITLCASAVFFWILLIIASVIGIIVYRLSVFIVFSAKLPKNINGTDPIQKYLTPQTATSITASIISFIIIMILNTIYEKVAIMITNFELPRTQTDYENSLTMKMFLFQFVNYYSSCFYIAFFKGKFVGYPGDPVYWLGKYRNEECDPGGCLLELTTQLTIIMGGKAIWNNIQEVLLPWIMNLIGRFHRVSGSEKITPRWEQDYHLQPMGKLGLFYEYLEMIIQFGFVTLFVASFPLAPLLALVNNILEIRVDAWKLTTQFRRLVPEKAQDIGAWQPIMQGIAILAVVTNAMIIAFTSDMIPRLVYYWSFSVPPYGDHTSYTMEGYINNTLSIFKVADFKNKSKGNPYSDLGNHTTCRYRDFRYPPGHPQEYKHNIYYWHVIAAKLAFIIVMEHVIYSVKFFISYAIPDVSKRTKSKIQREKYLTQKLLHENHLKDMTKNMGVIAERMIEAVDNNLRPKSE
- testDetails: Lact C2 assay (measuring phosphatidylserine externalization scramblase function)
- Assay type: cell-based
- conditionParameters: FRT, compound 50 nM; FRT cells expressing human ANO6 (variant 5); ionomycin 10 µM; Lact-C2-GFP fluorescence; average of three tests; read-out: % Inhibition 50 nM
reportedProperty: inhibition at 0.05 µM

• c1cc(Nc2ccc(-c3cccnn3)cn2)cc(-c2nc3ccccc3[nH]2)c1 [Example 56] = 30 to 60%
• Clc1cc2[nH]c(-c3cccc(Nc4ncc(-c5ccccn5)cn4)c3)nc2cn1 [Example 64] = 30 to 60%
• c1cncc(-c2ccc(Nc3cccc(-c4nc5ccccc5[nH]4)c3)cc2)c1 [Example 31] = 30 to 60%
• c1cc(Nc2ccc(-c3cnccn3)cc2)cc(-c2nc3ccccc3[nH]2)c1 [Example 32] = 30 to 60%
• Cc1cc2nc(-c3cccc(Nc4ccc(-c5cccnn5)cc4)c3)[nH]c2cc1F [Example 114] = 30 to 60%
• c1ccc(-c2ccc(Nc3cccc(-c4nc5ccccc5[nH]4)c3)cc2)cc1 [Example 19] = 30 to 60%
• Clc1ccc2nc(-c3cccc(Nc4ncc(-c5ccccn5)cn4)c3)[nH]c2c1 [Example 82] = > 60%
• Fc1cc2nc(-c3cccc(Nc4ccc(-c5ccncn5)cc4)c3)[nH]c2cc1F [Example 95] = > 60%
• Fc1cc2[nH]c(-c3cccc(Nc4ccc(-c5cccnn5)cc4)c3)nc2cc1C(F)(F)F [Example 104] = > 60%
• FC(F)(F)Oc1cc2nc(-c3cccc(Nc4ncc(-c5cccnn5)cn4)c3)[nH]c2cc1Cl [Example 120] = > 60%
• N#Cc1ccc(Nc2cccc(-c3nc4ccc(C(F)(F)F)cc4[nH]3)c2)nc1 [Example 314] = > 60%
• Fc1ccc2nc(-c3cccc(Nc4ccc(-c5ccccn5)cc4)c3)[nH]c2c1 [Example 92] = > 60%
• Fc1ccc(-c2cnc(Nc3cccc(-c4nc5ccc(C(F)(F)F)cc5[nH]4)c3)nc2)nc1 [Example 260] = 30 to 60%
• Fc1cc(-c2cccnn2)ccc1Nc1cccc(-c2nc3ccccc3[nH]2)c1 [Example 269] = 30 to 60%
